Measured values drawn from paper PMC4295395 for this set.

Experiment: Plasma acetaminophen and metabolite profile (HPLC) after 1000 mg acetaminophen, at week 0 and after 4 weeks of SBR supplementation
Settings: male, human, plasma, oral, 1000 mg, Plasma Tmax, week 4 (after 4 weeks SBR), 1000 mg acetaminophen, N=19, mean ± SD
quantityName: Tmax (h)
Give a bare numeral; the unit h is implied.

Input line: Quick check: Tmax of CC(=O)Nc1ccc(O[C@@H]2O[C@H](C(=O)O)[C@@H](O)[C@H](O)[C@H]2O)cc1 [Acetaminophen glucuronide] ?
Output line: 2.55

###

Assay: Plasma acetaminophen and metabolite profile (HPLC) after 1000 mg acetaminophen, at week 0 and after 4 weeks of SBR supplementation
Conditions: male, human, plasma, oral, 1000 mg, Plasma Tmax, week 0 (before SBR), 1000 mg acetaminophen, N=19, mean ± SD
quantityName: Tmax
In your response, put the unit directly after the numeric value.

Input line: Quick check: Tmax of CC(=O)Nc1ccc(O[C@@H]2O[C@H](C(=O)O)[C@@H](O)[C@H](O)[C@H]2O)cc1 [Acetaminophen glucuronide] ?
Output line: 2.13 h

###

Assay: Plasma acetaminophen and metabolite profile (HPLC) after 1000 mg acetaminophen, at week 0 and after 4 weeks of SBR supplementation
Settings: male, human, plasma, oral, 1000 mg, Plasma Cmax, week 4 (after 4 weeks SBR, 6 tablets daily), 1000 mg acetaminophen, N=19, mean ± SD
quantityName: Cmax (ng/mL)
Give a bare numeral; the unit ng/mL is implied.

Input line: Quick check: Cmax of CC(=O)Nc1ccc(O[C@@H]2O[C@H](C(=O)O)[C@@H](O)[C@H](O)[C@H]2O)cc1 [Acetaminophen glucuronide] ?
Output line: 10800

###

Experiment: Plasma acetaminophen and metabolite profile (HPLC) after 1000 mg acetaminophen, at week 0 and after 4 weeks of SBR supplementation
Conditions: male, human, plasma, oral, 1000 mg, Plasma AUC(0–8 hour), week 0 (before SBR), 1000 mg acetaminophen, N=19, mean ± SD
quantityName: AUC(0-t) (ng·h/mL)
Give a bare numeral; the unit ng·h/mL is implied.

Input line: Quick check: AUC(0-t) of CC(=O)Nc1ccc(O[C@@H]2O[C@H](C(=O)O)[C@@H](O)[C@H](O)[C@H]2O)cc1 [Acetaminophen glucuronide] ?
Output line: 58000

###

Assay: Plasma acetaminophen and metabolite profile (HPLC) after 1000 mg acetaminophen, at week 0 and after 4 weeks of SBR supplementation
Settings: male, human, plasma, oral, 1000 mg, Plasma Cmax, week 0 (before SBR), 1000 mg acetaminophen, healthy males N=19, mean ± SD
quantityName: Cmax

Input line: Quick check: Cmax of CC(=O)Nc1ccc(O[C@@H]2O[C@H](C(=O)O)[C@@H](O)[C@H](O)[C@H]2O)cc1 [Acetaminophen glucuronide] ?
Output line: 12600 ng/mL
